Reference source: patent US20040219626A1

Field: IC50. Provide a value for each of the compounds that follow.
biological target: farnesyl-pyrophosphate synthase (Saccharomyces cerevisiae); experiment: farnesyl-pyrophosphate synthase inhibition assay (coupled assay, malachite green, 384-well MTP); format: biochemical; details: read-out: p150 (converted)
Sequence (P08524 whole entry): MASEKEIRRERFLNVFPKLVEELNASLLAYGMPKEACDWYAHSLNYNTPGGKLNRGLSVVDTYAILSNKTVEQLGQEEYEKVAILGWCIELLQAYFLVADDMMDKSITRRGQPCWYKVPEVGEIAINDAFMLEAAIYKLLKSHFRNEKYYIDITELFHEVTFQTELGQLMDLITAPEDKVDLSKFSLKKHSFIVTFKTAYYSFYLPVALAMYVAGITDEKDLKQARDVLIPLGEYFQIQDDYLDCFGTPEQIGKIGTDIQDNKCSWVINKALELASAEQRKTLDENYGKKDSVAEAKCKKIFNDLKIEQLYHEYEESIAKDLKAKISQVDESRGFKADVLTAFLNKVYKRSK
Only the number, expressed in µM, is required.

Enquiry: Query: IC50; subject: CC(Oc1ccccc1)C(=O)Nc1cc(C(=O)N[C@@H](Cc2ccccc2)C(=O)O)ccc1N1CCN(C(c2ccccc2)c2ccccc2)CC1 (some centres unmarked)
Return: 31.6

Enquiry: Given the compound COc1ccc(CN(CC(C)(C)CN)C(=O)c2cccc(C)c2)cc1-c1ccc(N2CCC(Cc3ccccc3)CC2)c(NC(=O)c2cccs2)c1 , what is its reported IC50?
Return: 25.1

Enquiry: Could you share which IC50 value was measured for CC(C)(CN)CN(C(=O)c1cccs1)c1ccc(-c2ccc(N3CCN(c4ccccn4)CC3)c(NC(=O)CCC3CCCC3)c2)cc1 ?
Return: 39.8

Enquiry: Field request: IC50 | item: CC(=O)[n+]1ccc(-c2cc[n+](C(C)=O)cc2)cc1
Return: 7.41

Enquiry: Request the reported IC50 associated with CC(=O)Nc1nc(-c2ccccc2OCC(N)=O)cc(-c2cccc(NC(=O)c3ccc([N+](=O)[O-])cc3)c2)c1C#N
Return: 31.6
